tested on: ATP; assay: switch fluorescence ratio, 500 uM ATP over buffer (Cy3 cluster intensity, sum of 5 cycles each) (fold (ratio)); higher = stronger signal-on switching upon ATP binding; sequences stand for … in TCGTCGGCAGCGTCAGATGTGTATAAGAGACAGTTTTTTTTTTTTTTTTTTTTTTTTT…TC; details: aptamer strand: ATP DNA aptamer (quencher-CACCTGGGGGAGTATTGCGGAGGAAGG + anchor), 100 nM annealed; ATP concentration: 500 uM;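 further: ATP exposure 15 min at 22 °C before imaging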
Listed sequences paired with reported switch fluorescence ratio

Worked set:
> print(dat)
   record.sequence              property.name  measured.value
1       TTAGTCATGC  switch fluorescence ratio            1.09
2       CTTGGTTTAG  switch fluorescence ratio            1.01
3       ATGCCTGGGT  switch fluorescence ratio           0.999
4       ATGATTGGCC  switch fluorescence ratio           0.988
5       CGTGCCCAGC  switch fluorescence ratio            1.01
6       TTCCATCGGG  switch fluorescence ratio           0.993

Here is the next item to consider.
Task: Recorded switch fluorescence ratio of TGACTTGGCG , please.
Output: 1.03

----------
system: ATP; experiment: switch fluorescence ratio, 500 uM ATP over buffer (Cy3 cluster intensity, sum of 5 cycles each) (fold (ratio)); higher = stronger signal-on switching upon ATP binding; sequences stand for … in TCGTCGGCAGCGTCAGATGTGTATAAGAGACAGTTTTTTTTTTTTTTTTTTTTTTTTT…TC; settings: aptamer strand: ATP DNA aptamer (quencher-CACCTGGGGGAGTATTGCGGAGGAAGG + anchor), 100 nM annealed; ATP concentration: 500 uM;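 further: ATP exposure 15 min at 22 °C before imaging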
Listed sequences paired with reported switch fluorescence ratio
Keep the answer to the number alone.

Worked set:
> print(dat)
   record.sequence              property.name  measured.value
1       TCACGAATTT  switch fluorescence ratio               1
2       GGGAAAGATG  switch fluorescence ratio           0.986
3       TGGATGACGG  switch fluorescence ratio           0.972

Task: Recorded switch fluorescence ratio of AAGGTGGTTG , please.
Output: 0.969

Task: Continue with TAGCTGGATA
Output: 0.984

Task: Continue with TCACGGGGGG
Output: 1.08

Task: Continue with GGCTTTTTTT
Output: 0.994

Task: Continue with GGCTGGTGTG
Output: 1.02

Task: Continue with TTGCGTTGTT
Output: 0.969

Task: Continue with TGTGGGGGGC
Output: 1

Task: Continue with TATCGAGATA
Output: 1.02

----------
Listed sequences paired with reported switch fluorescence ratio
system: ATP; experiment: switch fluorescence ratio, 500 uM ATP over buffer (Cy3 cluster intensity, sum of 5 cycles each) (fold (ratio)); higher = stronger signal-on switching upon ATP binding; sequences stand for … in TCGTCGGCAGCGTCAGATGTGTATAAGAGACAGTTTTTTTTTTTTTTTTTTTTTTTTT…TC; conditions: aptamer strand: ATP DNA aptamer (quencher-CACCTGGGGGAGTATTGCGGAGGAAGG + anchor), 100 nM annealed; ATP concentration: 500 uM;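 further: ATP exposure 15 min at 22 °C before imaging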
Keep the answer to the number alone.

Worked set:
> print(dat)
   record.sequence  measured.value
1       TGGAGTGTTC            1.06
2       ACAGTGTGGT            1.07
3       AGTTGTGCCT            1.02
4       CAAAGGCAGG               1
5       TTTTATTTTC           0.993

Task: Recorded switch fluorescence ratio of ATATTACTAG , please.
Output: 0.989

Task: Continue with TTAAAGTCTC
Output: 0.946

Task: Continue with TTAGAGGACT
Output: 1.01

Task: Continue with GGACGGTAGG
Output: 0.979
